Below, each entry is listed alongside its reported AUC of viability dose-response curve.
# Test system: P12-Ichikawa
# protocol.details: AUC of viability dose-response curve (% viability x log10 dose units); higher = less sensitive
# assay.conditions: HPLM + 10% dialyzed FBS; 48 h
# answer = number (no unit)

CN(C)C1=CC=C(C=C1)C(C2=CC=C(C=C2)N(C)C)=C/3\C=C/C(/C=C3)=[N+](C)C; 253
C/C=C(/C)C(=O)O[C@H]1C(C)=C[C@]23C(=O)[C@@H](C=C(CO)[C@@H](O)[C@]12O)[C@H]1[C@@H](C[C@H]3C)C1(C)C; 397

# ---- query molecule ----
In: Recorded AUC of viability dose-response curve of CC(C)NC[C@@H](C(=O)N1CCN(c2ncnc3c2[C@H](C)C[C@H]3O)CC1)c1ccc(Cl)cc1 , please.
Out: 367
